Collected IC50 for Urokinase-type plasminogen activator (Homo sapiens) across several studies; compounds listed below.
Give the value, in units of µM, as a plain number.

N=C(N)Nc1ccc(CNc2c(-c3cc(Cl)cc(Cl)c3)nc3ccccn23)cc1 :: 99.2

Please state recorded IC50 (tested on Urokinase-type plasminogen activator (Homo sapiens)) of COC(=O)c1nn(C(=O)c2ccccc2)c2ccc([N+](=O)[O-])cc12
0.62

Please state recorded IC50 (tested on Urokinase-type plasminogen activator (Homo sapiens)) of Cc1cccc(C(=O)O)c1Oc1nc(Oc2cccc(-c3cccc(CN)c3)c2)c(F)cc1F
0.54

Please state recorded IC50 (tested on Urokinase-type plasminogen activator (Homo sapiens)) of N=C(N)c1nc(Cl)c(NCC(=O)O)nc1N
237

Please state recorded IC50 (tested on Urokinase-type plasminogen activator (Homo sapiens)) of NCCOc1c(Cl)cc(C(=O)Nc2ccccc2)cc1Cl
35

Please state recorded IC50 (tested on Urokinase-type plasminogen activator (Homo sapiens)) of Cc1ccc(C(=O)O)c(Oc2nc(Oc3cc(CN)cc(-c4cccc(CN)c4)c3)c(F)cc2F)c1
2.7

Please state recorded IC50 (tested on Urokinase-type plasminogen activator (Homo sapiens)) of Cc1ccc(Oc2nc(Oc3cccc(-c4cccc(CN)c4)c3)c(F)cc2F)c(C(=O)O)c1
3.5
